Assay: chemical genetic growth profiling, strain panel (AID 1159580);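 note: tested at 20 µM; growth read once vehicle control cultures reached saturation at 30 °C; 1 = growth at the plate median or of vehicle wells; lower values mean less growth of the strain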
Conditions: S. cerevisiae deletion strains, growth OD, locus YER155C, strain BEM2, hits give low values
Hit rate of the full screen: of about 5,500 compounds, about 2,000 (36%) were called active. Not shown: some 18% with an inconclusive outcome. The list shows a part of the results.
experimentalReadout: normalized growth
// return a plain number; no unit text

Example molecules with recorded normalized growth:
[
  {
    "molecule": "O=C(O)c1cc(=O)c2cc(Cl)ccc2[nH]1",
    "normalized growth": 0.995
  },
  {
    "molecule": "CC(=C(CCOP(=O)(O)O)SC(=O)c1ccccc1)N(C=O)Cc1cnc(C)nc1N",
    "normalized growth": 1.01
  },
  {
    "molecule": "Cc1cc(=O)c2c(O)cc(O)c(C)c2o1",
    "normalized growth": 0.987
  }
]

### Prompt // lookup normalized growth for CC(C)CC1C(=O)N2CCC[C@H]2C2(O)O[C@](NC(=O)C3C=C4c5cccc6[nH]c(Br)c(c56)C[C@H]4N(C)C3)(C(C)C)C(=O)N12 (stereo not given in full)
### Response 0.985

### Prompt // lookup normalized growth for CCCCCCCCCCCCC[N+](C)(C)Cc1ccccc1
### Response 0.0618

### Prompt // lookup normalized growth for COc1c(O)cc2oc3cc(O)c(CC=C(C)C)c(O)c3c(=O)c2c1CC=C(C)C
### Response 0.388

### Prompt // lookup normalized growth for CCC1(c2ccc(N)cc2)CCC(=O)NC1=O (stereo not given)
### Response 0.999

### Prompt // lookup normalized growth for O=C(O)c1ccccc1OP(=O)(O)O
### Response 1.01

---

Test: chemical genetic growth profiling, strain panel (AID 1159580);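 note: tested at 20 µM; growth read once vehicle control cultures reached saturation at 30 °C; 1 = growth at the plate median or of vehicle wells; lower values mean less growth of the strain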
Settings: S. cerevisiae deletion strains, growth OD, locus YGL173C, strain kem1
Screen size: about 5,500 compounds; about 2,000 (36%) were called active. Inconclusive results (about 18%) are left out. Rule as the data show it: active = normalized growth mostly below about 0.91 (no sharp cut-off); inconclusive = no clear call, values can overlap the other calls; inactive = mostly above about 0.92. The list shows a part of the results.
Bench note: report the call from active, inactive

// below: answered molecules
[
  {
    "molecule": "Cc1cc(C(C)(C)CC(C)(C)C)ccc1OCCOCC[N+](C)(C)Cc1ccccc1",
    "class": "active"
  },
  {
    "molecule": "COc1cc(O)c(C(=O)c2ccccc2)cc1O",
    "class": "inactive"
  },
  {
    "molecule": "c1ccc(CC2=NCCN2)cc1",
    "class": "inactive"
  }
]

### Prompt Please let me know the test result on file for CC(=O)O[C@H]1C(=O)[C@@]2(C)C([C@H](OC(=O)c3ccccc3)[C@]3(O)C[C@H](OC(=O)[C@H](O)[C@@H](NC(=O)c4ccccc4)c4ccccc4)C(C)=C1C3(C)C)[C@]1(OC(C)=O)CO[C@@H]1C[C@@H]2O (some centres not stated) .
### Response inactive

### Prompt Please let me know the test result on file for O=C(O)c1cc(=O)c2ccc(Cl)cc2[nH]1 .
### Response inactive

### Prompt Please let me know the test result on file for C[N+](C)(C)CCOP(=O)([O-])OP(=O)(O)OC[C@H]1OC(n2ccc(N)nc2=O)[C@H](O)[C@@H]1O (some centres not stated) .
### Response inactive

### Prompt Please let me know the test result on file for Cc1cc(OC(=O)N2CCCCC2)c(C(C)C)cc1[N+](C)(C)C .
### Response inactive

### Prompt Please let me know the test result on file for CC(C)(C)CC(C)(C)c1ccc(OCCOCC[N+](C)(C)Cc2ccccc2)cc1 .
### Response active

### Prompt Please let me know the test result on file for CCCCCCCC/C=C/CCCCCCCCOP(=O)([O-])OCC[N+](C)(C)C .
### Response active

### Prompt Please let me know the test result on file for COc1cc2c(cc1OC)C(=O)C(CC1CCN(Cc3ccccc3)CC1)C2 (configuration not stated) .
### Response inactive

### Prompt Please let me know the test result on file for Cc1cccc(Nc2cc(Cl)nc(SCC(=O)O)n2)c1C .
### Response inactive

### Prompt Please let me know the test result on file for Cc1ccc2c(c1)CC[C@H]1CC(=O)CC[C@]21C .
### Response inactive

### Prompt Please let me know the test result on file for NC(N)=Nc1nc(CSCCC(N)=NS(N)(=O)=O)cs1 .
### Response inactive

### Prompt Please let me know the test result on file for S=C=NCc1ccccc1 .
### Response active

### Prompt Please let me know the test result on file for CCC1(c2ccc(N)cc2)CCC(=O)NC1=O (configuration not stated) .
### Response inactive

### Prompt Please let me know the test result on file for COC(=O)COc1cc(Cl)c(Cl)cc1Cl .
### Response inactive

### Prompt Please let me know the test result on file for CCSC(=N)N .
### Response inactive

### Prompt Please let me know the test result on file for CCc1nc(N)nc(N)c1-c1ccc(Cl)cc1 .
### Response inactive

### Prompt Please let me know the test result on file for NC(N)=NOCC[C@H](N)C(=O)O .
### Response inactive

### Prompt Please let me know the test result on file for CC1(C)S[C@@H]2[C@H](NC(=O)[C@H](NC(=O)N3CCNC3=O)c3ccccc3)C(=O)N2C1C(=O)O (some centres not stated) .
### Response inactive

### Prompt Please let me know the test result on file for O=C(/C=C/C=C/c1ccc2c(c1)OCO2)N1CCCCC1 .
### Response inactive

### Prompt Please let me know the test result on file for CC(C)(N=NC(C)(C)C(=N)N)C(=N)N .
### Response inactive

### Prompt Please let me know the test result on file for COc1ccc2c(c1)OC[C@@H](Cc1ccc(OC)c(OC)c1)[C@@H]2O .
### Response inactive
